- System: Escherichia coli TOP10;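 note: peptides expressed intracellularly from a pBAD plasmid library in pooled LB shake-flask culture, induced with 0.3% L-arabinose, DNA abundance read by NGS, three biological replicates, DESeq2 with apeglm shrinkage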
- assaySummary: shrunken log2 fold change of peptide-encoding DNA abundance (4.5 h post-induction vs induction); higher = less antimicrobial activity (less host growth inhibition)
- cond: time post-induction: 4.5 h; library: site-saturation at positions 5, 18, 19, 20
propertyMeasured: shrunken log2 fold change
Please give only the number in your answer, with no unit.

Reference set (6 entries):
RRIRFRPPRLPRPRPRPDDTPRP :: 0.0516
RRIRFRPPRLPRPRPRPQDHPRP :: -0.391
RRIRARPPRLPRPRPRPYLDPRP :: 0.118
RRIRARPPRLPRPRPRPRMHPRP :: 0.324
RRIRPRPPRLPRPRPRPPNNPRP :: 0.414
RRIRMRPPRLPRPRPRPALCPRP :: 0.221

Could you share which shrunken log2 fold change value was measured for RRIRERPPRLPRPRPRPLGNPRP ? -0.477

Could you share which shrunken log2 fold change value was measured for RRIRKRPPRLPRPRPRPRHHPRP ? 0.476
